# ASSAY_SYSTEM: Gal(b1-4)GalNAc(b1-3)[Fuc(a1-2)]Gal(b1-4)GlcNAc
# TEST_NAME: glycan array binding signal (z-score within array); higher = stronger binding
# CONDITION_DETAILS: glycan notation: IUPAC condensed, linker removed
Only a selection was taken, and the strongest signals are over-represented in it overall.
QUANTITY: glycan array binding signal (z-score)
Write no unit; give the number alone.

Example results:
[
  {
    "BINDER": "Pwp4 (Candida glabrata) (protein) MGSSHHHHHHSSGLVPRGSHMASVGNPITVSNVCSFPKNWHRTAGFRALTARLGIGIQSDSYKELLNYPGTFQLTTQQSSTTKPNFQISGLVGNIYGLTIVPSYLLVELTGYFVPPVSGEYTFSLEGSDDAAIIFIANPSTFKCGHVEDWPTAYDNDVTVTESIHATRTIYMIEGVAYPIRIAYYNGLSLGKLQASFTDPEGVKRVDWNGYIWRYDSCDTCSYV",
    "glycan array binding signal (z-score)": -0.019
  },
  {
    "BINDER": "LecB PA7 (Pseudomonas aeruginosa) (protein) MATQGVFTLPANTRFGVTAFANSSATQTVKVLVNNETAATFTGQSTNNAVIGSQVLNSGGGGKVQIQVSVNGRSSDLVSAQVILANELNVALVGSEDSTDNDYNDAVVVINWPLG",
    "glycan array binding signal (z-score)": -0.478
  },
  {
    "BINDER": "GH95CBM (Clostridium perfringens) (protein) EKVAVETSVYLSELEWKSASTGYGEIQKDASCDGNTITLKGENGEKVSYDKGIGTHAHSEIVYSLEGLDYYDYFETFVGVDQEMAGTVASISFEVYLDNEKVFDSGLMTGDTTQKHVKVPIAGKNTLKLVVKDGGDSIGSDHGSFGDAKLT",
    "glycan array binding signal (z-score)": 4.18
  }
]

Moving on to another binder below.
Query: What value of glycan array binding signal (z-score) has been recorded for this entry: SRS2 (Toxoplasma gondii), O15695 (protein) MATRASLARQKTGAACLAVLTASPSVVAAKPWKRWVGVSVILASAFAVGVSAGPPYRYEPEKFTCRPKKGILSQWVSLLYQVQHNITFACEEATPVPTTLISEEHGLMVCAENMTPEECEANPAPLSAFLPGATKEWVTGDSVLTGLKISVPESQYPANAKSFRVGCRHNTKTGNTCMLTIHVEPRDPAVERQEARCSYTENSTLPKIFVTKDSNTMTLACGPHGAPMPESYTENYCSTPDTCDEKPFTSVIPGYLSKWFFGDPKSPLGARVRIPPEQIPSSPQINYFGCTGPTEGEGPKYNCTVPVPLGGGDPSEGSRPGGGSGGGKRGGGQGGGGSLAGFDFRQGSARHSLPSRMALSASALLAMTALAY
Reply: -0.802
